Below: a set of entries, each annotated with reported pEC50.
# ASSAYED SYSTEM: T1, CD47 on CHOK1-CD47 cells (UniProt Q08722 19-323)
# T1 construct: whole, on cells; The rabbits were immunized with human CD47, so human is likely
# T1 sequence (Q08722 19-323 limits assumed): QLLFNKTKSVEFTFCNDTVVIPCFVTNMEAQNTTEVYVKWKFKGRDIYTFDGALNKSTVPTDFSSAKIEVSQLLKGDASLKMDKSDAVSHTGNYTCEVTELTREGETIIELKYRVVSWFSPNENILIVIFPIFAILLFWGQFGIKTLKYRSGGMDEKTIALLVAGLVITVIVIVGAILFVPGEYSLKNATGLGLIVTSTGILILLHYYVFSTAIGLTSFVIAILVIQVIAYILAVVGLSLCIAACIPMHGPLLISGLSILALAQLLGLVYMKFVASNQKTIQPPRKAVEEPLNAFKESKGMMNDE
# MEASUREMENT PROTOCOL: flow cytometry on CHOK1-CD47 cells
# pEC50 = -log10(concentration in molar units)

These solved cases illustrate the format of a correct answer.
70H1-VH2VL2 (antibody, V domains shown, Humanized 70H1) VH: QQQLVESGGGVVQPGGSLRLSCAASGFTFSSGYDMCWVRQAPGKGLEWIACIYTRSSGGTYYASWAKGRFTISKDNSKNTLYLQMNSLRAEDTAVYYCAKGRSSYRLNLWGQGTLVTVSS VL: DIQMTQSPSTLSASVGDRVTIKCQASQSISNELSWYQQKPGKAPKLLIYRASTLESGVSSRFSGSGSGTEFTLTISSLQPDDFATYYCQSTFYGDYGNAFGGGTKVEIK ... 8.93
70H1-VH2VL3 (antibody, V domains shown, Humanized 70H1) VH: QQQLVESGGGVVQPGGSLRLSCAASGFTFSSGYDMCWVRQAPGKGLEWIACIYTRSSGGTYYASWAKGRFTISKDNSKNTLYLQMNSLRAEDTAVYYCAKGRSSYRLNLWGQGTLVTVSS VL: DIQMTQSPSTLSASVGDRVTIKCQASQSISNELSWYQQKPGKPPKLLIYRASTLESGVSSRFSGSGSGTEFTLTISSLQPDDFATYYCQSTFYGDYGNAFGGGTKVEIK ... 8.98

Now for another entry.
# pEC50 lookup, item 70H1-VH3VL3 (antibody, V domains shown, Humanized 70H1) VH: QQQLVESGGGVVQPGGSLRLSCAASGFSFSSGYDMCWVRQAPGKGLEWIACIYTRSSGGTYYASWAKGRFTISKDNSKNTLYLQMNSLRAEDTAVYFCAKGRSSYRLNLWGQGTLVTVSS VL: DIQMTQSPSTLSASVGDRVTIKCQASQSISNELSWYQQKPGKPPKLLIYRASTLESGVSSRFSGSGSGTEFTLTISSLQPDDFATYYCQSTFYGDYGNAFGGGTKVEIK
9.00
